B1: EEHEE_rd3_1049 (parent)
chain: TTVKLGDIKVTFDNPEKAKKYAQKLAKIYQLTVHVHGDTIHVK

- Variants of: B1
- assay_procedure: folding stability dG (cDNA display proteolysis); higher = more stable
- assay_setup: PBS, room temperature
Outcome label depends on folding stability dG relative to 2 kcal/mol: at/above gives condition met, below gives condition not met.

Exam item: Record TTVKLGDIKVTFDNPEKAKKYAQKLAKNYQLTVHVHGDTIHVK [I28N] ; criterion: folding stability dG no lower than 2 kcal/mol. Met?
Marked response: condition not met

Exam item: decide whether the reported folding stability dG for TTVKLGDIKVTFDNPEKAKKYAQKLDKIYQLTVHVHGDTIHVK [A26D] is at least 2 kcal/mol.
Marked response: condition not met

Exam item: Reported folding stability dG reaches at least 2 kcal/mol for TTVKLGDISVTFDNPEKAKKYAQKLAKIYQLTVHVHGDTIHVK [K9S] ?
Marked response: condition met

Exam item: In plain terms: is recorded folding stability dG at least 2 kcal/mol for TTQKLGDIKVTFDNPEKAKKYAQKLAKIYQLTVHVHGDTIHVK [V3Q] ?
Marked response: condition not met

Exam item: Could you verify whether the entry TTVKLGDIKVTFDNPEKAMKYAQKLAKIYQLTVHVHGDTIHVK [K19M] shows folding stability dG of no less than 2 kcal/mol?
Marked response: condition met

Exam item: Can TTVKLGDIKVTFDNPEGAKKYAQKLAKIYQLTVHVHGDTIHVK [K17G] be said to have folding stability dG at or above 2 kcal/mol?
Marked response: condition not met

Exam item: Could you tell me if the measured folding stability dG of TTVKLGDIKVDFDNPEKAKKYAQKLAKIYQLTVHVHGDTIHVK [T11D] reaches 2 kcal/mol or more?
Marked response: condition not met

Exam item: Please check the record TTVKLGDIKVTFDNPEKAKKYAQTLAKIYQLTVHVHGDTIHVK [K24T] and state if its folding stability dG is at or above 2 kcal/mol.
Marked response: condition not met

Exam item: API: above_or_equal(metric=folding stability dG, cutoff=2 kcal/mol) for item TTVKLGDIKVTFDNPMKAKKYAQKLAKIYQLTVHVHGDTIHVK [E16M]
Marked response: condition not met
